System: Pseudomonas aeruginosa
Test: Aerobic antibacterial MIC, standard dilution technique
Assay type: cell-based
Settings: clinical isolate, value in parentheses, read-out: Minimum inhibitory concentration (MIC) Pseudomonas aeruginosa
From the text: Antibacterial properties were investigated for the synthesized compounds against a variety of Gram-positive (Staphylococcus aureus, Enterococcus faecalis) and Gram-negative (Klebsiella pneumonia, Proteus vulgaris, Pseudomonas aeruginosa) clinical isolate bacteria utilizing the standard technique.[21]
Reported property: MIC (µM)
Enter your answer as a number in µM; do not include the unit.

Task: What measured MIC goes with CC(C)[C@H](NC(=O)c1cnccn1)C(=O)NNC(=O)c1ccncc1 [C00012] ?
Result: 0.35

Task: What MIC value was documented for this molecule, CSCC[C@H](NC(=O)c1cnccn1)C(=O)NNC(=O)c1ccncc1 [C00014] ?
Result: 0.32

Task: If you can, please state the reported MIC value of CC(C)C[C@H](NC(=O)c1cnccn1)C(=O)NNC(=O)c1ccncc1 [C00011] .
Result: 180

Task: Which MIC value is on record for O=C(N[C@@H](Cc1ccccc1)C(=O)O)c1cnccn1 [C00008] ?
Result: 0.44

Task: GET /values?readout=MIC&item= O=C(NNC(=O)[C@H](Cc1c[nH]c2ccccc12)NC(=O)c1cnccn1)c1ccncc1 [C00017]
Result: 0.28

Task: // returns reported MIC for input CC(C)C[C@H](NC(=O)c1cnccn1)C(=O)O [C00004]
Result: 0.13

Task: Data request, read-out MIC, for CSCC[C@H](NC(=O)c1cnccn1)C(=O)O [C00007]
Result: 0.47

---

Test system: Mycobacterium fortuitum
Assay: microbe, parasite or virus in culture
Assay type: cell-based
Conditions: Mycolicibacterium fortuitum; clinical isolate; read-out: Minimum inhibitory concentration (MIC) M. fortuitum
Reported property: MIC (µg/mL)
Just the number in µg/mL, nothing appended.

Task: What measured MIC goes with CC(C)[C@H](NC(=O)c1cnccn1)C(=O)NNC(=O)c1ccncc1 [12b] ?
Result: 20

Task: Request the reported MIC associated with O=C(NNC(=O)c1ccncc1)c1ccncc1 [compound 16, N′-Isonicotinoylisonicotinohydrazide]
Result: 20

Task: Returns the measured MIC for the input compound. Input: CC[C@H](C)[C@H](NC(=O)c1cnccn1)C(=O)NNC(=O)c1ccncc1 [12c]
Result: 20

Task: So what's the measured MIC for this one? NNC(=O)c1ccncc1 [INH, isoniazid]
Result: 20
